# Tested on: Staphylococcus aureus
# METHOD_SUMMARY: Antibacterial activity against methicillin-resistant Staphylococcus aureus isolate 612 assessed as bacterial growth inhibition measured after 18 hrs by CLSI protocol based two-fold serial microdilution method
# Type: functional
# TEST_PARAMETERS: isolate 612, 18 h
PROPERTY_LABEL: MIC

Quick note, MIC for C#CCN[C@@H]1C=C[C@]2(O[C@H]([C@@H](CC)C(=O)[C@@H](C)[C@@H](O)[C@H](C)[C@@H]3O[C@@H]([C@@H](CC)C(=O)O)CC[C@@H]3C)[C@@H](C)C[C@H]2C)O[C@@]12CC[C@@](C)([C@H]1CC[C@](O)(CC)[C@H](C)O1)O2 landed at 1.27 µM

For this compound ( CC[C@@H](C(=O)[C@@H](C)[C@@H](O)[C@H](C)[C@@H]1O[C@@H]([C@@H](CC)C(=O)ONC(=O)c2ccccc2)CC[C@@H]1C)[C@H]1O[C@]2(C=C[C@@H](O)[C@]3(CC[C@@](C)([C@H]4CC[C@](O)(CC)[C@H](C)O4)O3)O2)[C@H](C)C[C@@H]1C ), measured MIC is 4.6 µM

All figures here come from ChEMBL document CHEMBL4627327.
